Reference source: the RepoRT retention time repository

ASSAY_REMARKS: RP, Thermo Scientific Hypersil GOLD, 1.9 µm, 40 °C, 0.4 mL/min; A: water + 0.1% formic acid, pH 3; B: acetonitrile + 0.1% formic acid, pH 3; gradient (min/%B) 0/0 1/0 11/100 13/100 14/0 16/0
CONDITION_SET: stereoisomer not certain
PROPERTY_LABEL: LC retention time (min)
Give the number; min is assumed, so skip it.

compound="O=C(O)c1ccc(=O)[nH]c1 [6-HYDROXYNICOTINATE]" meas_value=1.5

Then this compound:
The recorded LC retention time for O=C(O)Cc1ccc(O)cc1 [4-Hydroxyphenylacetic acid] is 4.88

---

Some compounds, each annotated with its measured LC retention time.
ASSAY_REMARKS: RP, Thermo Scientific Hypersil GOLD, 1.9 µm, 40 °C, 0.4 mL/min; A: water + 0.1% formic acid, pH 3; B: acetonitrile + 0.1% formic acid, pH 3; gradient (min/%B) 0/0 1/0 11/100 13/100 14/0 16/0
CONDITION_SET: stereoisomer not certain
Structures can show the parent of a compound that is named as a salt.
Give the number; min is assumed, so skip it.

Solved entries:
compound=Cc1ccncc1 property_label="LC retention time" readout_units=min meas_value=0.87
compound="O=C(O)CC(O)(CC(=O)O)C(=O)O [CITRATE]" property_label="LC retention time" readout_units=min meas_value=0.9
compound=O=c1[nH]c(=O)c2[nH]cnc2[nH]1 property_label="LC retention time" readout_units=min meas_value=0.82
compound="NC(=O)NC1NC(=O)NC1=O (stereo unspecified)" property_label="LC retention time" readout_units=min meas_value=0.67

The recorded LC retention time for `Nc1ncccc1C(=O)O` is 0.81

The recorded LC retention time for `NCCC(=O)O` is 0.62

The recorded LC retention time for `O=c1ccc2cc(O)ccc2[nH]1` is 4.44

The recorded LC retention time for NCCCCN=C(N)N [AGMATINE SULFATE] is 0.54

The recorded LC retention time for O=c1c(OC2OC(CO)C(O)C(O)C2O)c(-c2ccc(O)c(O)c2)oc2cc(O)cc(O)c12 [Quercetin-3-beta-D-glucoside] is 5.53

The recorded LC retention time for `O=C(O)c1cc(=O)c2ccccc2[nH]1` is 4.67

The recorded LC retention time for O=C(O)c1ccccc1O [SALICYLATE] is 6.26

The recorded LC retention time for CC(O)(CC(=O)O)CC(=O)O [3-HYDROXYMETHYLGLUTARATE] is 1.48

The recorded LC retention time for CC12CCC(=O)C=C1CCC1C2C(O)CC2(C)C1CCC2(O)C(=O)CO (stereo unspecified) is 6.73

The recorded LC retention time for CC(CCC(=O)O)CC(=O)O (stereo unspecified) is 5.01

The recorded LC retention time for CCCCCCCCC=CCCCCCCCC(=O)OCC(O)COP(=O)([O-])OCC[N+](C)(C)C (stereo unspecified) is 0.61

The recorded LC retention time for `CNCCc1c[nH]c2ccccc12` is 4.93

The recorded LC retention time for NC(=O)c1ncccc1O [3-Hydroxypicolinamide] is 4.64

The recorded LC retention time for `Nc1cccc2ccccc12` is 5.87

The recorded LC retention time for `NCCOP(=O)(O)O` is 0.61

The recorded LC retention time for C=C(CC(=O)O)C(=O)O [ITACONATE] is 3.2

---

ASSAY_REMARKS: RP, Thermo Scientific Hypersil GOLD, 1.9 µm, 40 °C, 0.4 mL/min; A: water + 0.1% formic acid, pH 3; B: acetonitrile + 0.1% formic acid, pH 3; gradient (min/%B) 0/0 1/0 11/100 13/100 14/0 16/0
CONDITION_SET: stereoisomer not certain
Classification by LC retention time | ranges: lower bin (below 0.8 min), middle bin (0.8 min to below 4 min), upper bin (4 min or more)

Observe how each entry below is paired with its result.
compound="O=c1[nH]c(=O)c2nccnc2[nH]1 [2-4-DIHYDROXYPTERIDINE]" class_name="middle bin"
compound="O=C(O)CCCCCCCCCO [10-HYDROXYDECANOATE]" class_name="upper bin"

Please examine the following record next.
For the record CC(=O)NCCCC(=O)O [4-ACETAMIDOBUTANOATE] , report the class its LC retention time corresponds to.
middle bin

---

ASSAY_REMARKS: RP, Thermo Scientific Hypersil GOLD, 1.9 µm, 40 °C, 0.4 mL/min; A: water + 0.1% formic acid, pH 3; B: acetonitrile + 0.1% formic acid, pH 3; gradient (min/%B) 0/0 1/0 11/100 13/100 14/0 16/0
CONDITION_SET: stereoisomer not certain
PROPERTY_LABEL: LC retention time

compound="O=C(O)C(O)c1cccc(O)c1 (centres undefined) [3-Hydroxymandelic acid]" property_label="LC retention time" meas_value="2.66 min"
compound="OCC(O)c1ccc(O)c(O)c1 (centres undefined) [3-4-DIHYDROXYPHENYLGLYCOL]" property_label="LC retention time" meas_value="0.92 min"
compound="NC(C(=O)O)c1ccccc1 (centres undefined) [2-Phenylglycine]" property_label="LC retention time" meas_value="0.83 min"
compound="O=C1CCC(C(=O)O)N1 (centres undefined) [OXOPROLINE]" property_label="LC retention time" meas_value="0.82 min"
compound="O=c1[nH]c(=O)c2ncn(C3OC(COP(=O)(O)O)C(O)C3O)c2[nH]1 (centres undefined) [XANTHOSINE-MONOPHOSPHATE]" property_label="LC retention time" meas_value="0.83 min"
compound="C[N+](C)(C)CCCCC(N)C(=O)[O-] (centres undefined) [N-N-N-TRIMETHYLLYSINE]" property_label="LC retention time" meas_value="0.59 min"
compound="Nc1cc(C(=O)O)ccc1[O-] [3-AMINO-4-HYDROXYBENZOATE]" property_label="LC retention time" meas_value="0.82 min"
compound="NCCc1ccccc1 [PHENETHYLAMINE]" property_label="LC retention time" meas_value="4.03 min"

Then this compound:
The recorded LC retention time for NCCCCCN [CADAVERINE] is 0.55 min

---

ASSAY_REMARKS: RP, Thermo Scientific Hypersil GOLD, 1.9 µm, 40 °C, 0.4 mL/min; A: water + 0.1% formic acid, pH 3; B: acetonitrile + 0.1% formic acid, pH 3; gradient (min/%B) 0/0 1/0 11/100 13/100 14/0 16/0
CONDITION_SET: stereoisomer not certain
Some compounds, each annotated with its measured LC retention time.

compound="O=C(O)CCCCCCCC(=O)O [AZELATE]" property_label="LC retention time" meas_value="6.12 min"
compound="CC(CCC(=O)O)C1CCC2C3C(O)C(O)C4CC(O)CCC4(C)C3CCC12C (stereo unspecified)" property_label="LC retention time" meas_value="7.96 min"
compound="O=C(O)c1ccc[n+]([O-])c1 [Nicotinic acid N-oxide]" property_label="LC retention time" meas_value="0.83 min"
compound="CC(CCC(=O)O)C1CCC2C3CCC4CC(=O)CCC4(C)C3CCC12C (stereo unspecified)" property_label="LC retention time" meas_value="10.7 min"
compound="Nc1ccn(C2OC(COP(=O)(O)OP(=O)(O)O)C(O)C2O)c(=O)n1 (stereo unspecified) [CYTIDINE DIPHOSPHATE]" property_label="LC retention time" meas_value="1.2 min"

The recorded LC retention time for Cc1cc(=O)oc(C)c1C(=O)O [Isodehydracetic acid] is 4.13 min

The recorded LC retention time for `OCCNCCO` is 0.6 min

The recorded LC retention time for OCC1OCC(O)C(O)C1O [1-5-Anhydro-D-sorbitol] is 0.7 min

---

ASSAY_REMARKS: RP, Thermo Scientific Hypersil GOLD, 1.9 µm, 40 °C, 0.4 mL/min; A: water + 0.1% formic acid, pH 3; B: acetonitrile + 0.1% formic acid, pH 3; gradient (min/%B) 0/0 1/0 11/100 13/100 14/0 16/0
CONDITION_SET: stereoisomer not certain
Some compounds, each annotated with its measured log10 of LC retention time.
Log10 applied to LC retention time; unit prior to transform: min.

compound="C=C(C)C1CC=C(C)C(=O)C1 [(R)-(-)-Carvone]" meas_value=0.91

The recorded log10 of LC retention time for O=c1ccn(C2OC(COP(=O)(O)O)C(O)C2O)c(=O)[nH]1 (stereo not given) [URIDINE MONOPHOSPHATE] is -0.12

The recorded log10 of LC retention time for Nc1ncnc2c1ncn2C1OC(CO)C(OP(=O)(O)O)C1O (stereo not given) [Adenosine 3'-monophosphate free acid] is -0.09

---

ASSAY_REMARKS: RP, Thermo Scientific Hypersil GOLD, 1.9 µm, 40 °C, 0.4 mL/min; A: water + 0.1% formic acid, pH 3; B: acetonitrile + 0.1% formic acid, pH 3; gradient (min/%B) 0/0 1/0 11/100 13/100 14/0 16/0
CONDITION_SET: stereoisomer not certain
Where a name gives a salt, the structure may show the parent alone.
Some compounds, each annotated with its measured LC retention time.
Give the number; min is assumed, so skip it.

Solved entries:
compound="O=P(O)(O)OC(CO)CO [BETA-GLYCEROPHOSPHATE]" property_label="LC retention time" meas_value=0.67
compound="O=C(O)C(=O)Cc1ccccc1 [PHENYLPYRUVATE]" property_label="LC retention time" meas_value=5.26
compound="CC(CCC(=O)NCCS(=O)(=O)O)C1CCC2C3CCC4CC(O)CCC4(C)C3CCC12C (stereo not given)" property_label="LC retention time" meas_value=8.73
compound="OCC1OC(OCC2OC(O)(CO)C(O)C2O)C(O)C(O)C1O (stereo not given)" property_label="LC retention time" meas_value=0.67
compound=NCCCCN property_label="LC retention time" meas_value=0.54
compound="CNCC(O)c1ccc(O)c(O)c1 (stereo not given) [EPINEPHRINE]" property_label="LC retention time" meas_value=0.74
compound="CC(CCC(=O)NCCS(=O)(=O)O)C1CCC2C3C(O)CC4CC(O)CCC4(C)C3CC(O)C12C (stereo not given) [taurocholic acid sodium salt hydrate]" property_label="LC retention time" meas_value=7.13
compound="NC(CCS)C(=O)O (stereo not given)" property_label="LC retention time" meas_value=0.72
compound="Nc1nc2c(ncn2C2OC(COP(=O)(O)O)C(O)C2O)c(=O)[nH]1 (stereo not given) [GUANOSINE MONOPHOSPHATE]" property_label="LC retention time" meas_value=0.81

Then this compound:
The recorded LC retention time for OC1C(O)C(O)C(O)C(O)C1O (stereo not given) is 0.61
